- Measured On: NTMT1 (Homo sapiens, UniProt Q9BV86)
- Sequence (Q9BV86 1-222): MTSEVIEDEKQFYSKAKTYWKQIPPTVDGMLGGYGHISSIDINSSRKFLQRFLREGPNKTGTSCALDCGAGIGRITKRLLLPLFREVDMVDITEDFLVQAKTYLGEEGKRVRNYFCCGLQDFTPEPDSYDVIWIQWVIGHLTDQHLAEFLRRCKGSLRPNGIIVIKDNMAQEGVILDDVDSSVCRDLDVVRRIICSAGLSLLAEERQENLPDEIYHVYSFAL
- Assay Explanation: MTase-Glo luminescence assay, 1536-well
- Format: biochemical
- Experimental Conditions: IC50, Epigenetic Library qHTS, 1 nM to 57 μM
pIC50: −log10 of the molar value.
Quantity Measured: pIC50

[in] # value lookup — system NTMT1 (Homo sapiens, UniProt Q9BV86), readout pIC50, item "[N-]=[N+]=Nc1nc2c(N)ncnc2n1[C@@H]1O[C@H](CO)[C@@H](O)[C@H]1O"
[out] 4.61 to 4.77
